Assay: Plasma Cmax in rat (PO dose)
Format: ADME, organism-based
Design: route oral
Rule for this label: condition met means Cmax is less than 70 µM; condition not met means Cmax is at least 70 µM.

As a guide, the following entries are already answered.
Is the reported Cmax for O=C1NCCN(c2cccc(-c3ccsc3)c2)N1 strictly below 70 µM?
condition met

Is the reported Cmax for O=C1NCCN(c2cccc(C(F)(F)F)c2)N1 strictly below 70 µM?
condition met

Is the reported Cmax for COc1cccc(N2CC(C)NC(=O)N2)n1 (stereo unspecified) strictly below 70 µM?
condition not met

Is the reported Cmax for CC1CN(c2ccccc2)NC(=O)N1 (stereo unspecified) strictly below 70 µM?
condition not met

Note: attention shifts to another entry.
Is the reported Cmax for O=C1NCCN(c2cccc(Cl)c2)N1 strictly below 70 µM?
condition met
